- System Name: Beta-2 adrenergic receptor (Homo sapiens, UniProt P07550)
- Sequence (P07550 whole entry): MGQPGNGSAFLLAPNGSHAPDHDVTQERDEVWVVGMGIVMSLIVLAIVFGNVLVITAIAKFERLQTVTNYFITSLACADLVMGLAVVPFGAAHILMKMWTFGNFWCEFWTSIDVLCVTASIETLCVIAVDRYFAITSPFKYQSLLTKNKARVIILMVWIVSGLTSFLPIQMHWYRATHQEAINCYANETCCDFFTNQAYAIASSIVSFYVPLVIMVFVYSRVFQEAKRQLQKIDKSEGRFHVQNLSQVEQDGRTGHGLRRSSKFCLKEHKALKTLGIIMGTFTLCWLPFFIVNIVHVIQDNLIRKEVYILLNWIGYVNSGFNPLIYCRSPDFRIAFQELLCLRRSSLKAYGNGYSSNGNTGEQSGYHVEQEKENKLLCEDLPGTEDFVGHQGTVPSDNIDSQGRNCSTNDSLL
Item-by-item account of pEC50
Keep it numeric: pEC50 is minus log10 of the concentration in mol/L.

Some entries whose results are on file:
# Item Smiles, System Name, Recorded Metric, Measured Result
records = [
    ("C[C@H](CNc1cccc(-c2ncccc2C(=O)O)c1)NC[C@H](O)c1cccc(Cl)c1", "Beta-2 adrenergic receptor (Homo sapiens, UniProt P07550)", "pEC50", 5.80),
    ("Cc1ccc(C(=O)O)cc1-c1cccc(NCCNC[C@H](O)c2cccc(Cl)c2)c1", "Beta-2 adrenergic receptor (Homo sapiens, UniProt P07550)", "pEC50", 6.20),
    ("COC(=O)c1cccc(-c2cccc(NCCNC[C@H](O)c3cccc(Cl)c3)c2)c1", "Beta-2 adrenergic receptor (Homo sapiens, UniProt P07550)", "pEC50", 6.30),
    ("O=C(O)c1cncc(-c2cccc(NCCNC[C@H](O)c3cccc(Cl)c3)c2)c1", "Beta-2 adrenergic receptor (Homo sapiens, UniProt P07550)", "pEC50", 5.40),
    ("C[C@H](CNc1cccc(-c2cccc(C(=O)O)c2)c1)NC[C@H](O)c1cccc(Cl)c1", "Beta-2 adrenergic receptor (Homo sapiens, UniProt P07550)", "pEC50", 7.30),
    ("O=C(O)c1cccc(-c2cccc(NCCNC[C@H](O)c3cccc(Cl)c3)c2)c1", "Beta-2 adrenergic receptor (Homo sapiens, UniProt P07550)", "pEC50", 5.90),
    ("C[C@H](CNc1cccc(-c2ccccc2C(=O)O)c1)NC[C@H](O)c1cccc(Cl)c1", "Beta-2 adrenergic receptor (Homo sapiens, UniProt P07550)", "pEC50", 6.00),
    ("C[C@H](CNc1cccc(-c2ccc(C(=O)O)cc2)c1)NC[C@H](O)c1cccc(Cl)c1", "Beta-2 adrenergic receptor (Homo sapiens, UniProt P07550)", "pEC50", 5.80),
]

We now examine a further compound.
Q. Specify pEC50 for "O=C(O)c1cccc(-c2cccc(NCCNC[C@H](O)c3cccc(Cl)c3)c2)n1" , system Beta-2 adrenergic receptor (Homo sapiens, UniProt P07550).
A. 5.00
